Biological target: human DLK (Homo sapiens, UniProt Q12852)
Assay: Phospho-cJun Cellular Assay
Conditions: HEK293 cells stably transfected with Dox-inducible human DLK; p-cJun (Ser63); 5 h compound incubation
readoutType: IC50 (nM)

The following compounds have reported results that may help.
Nc1ncc(-c2cn([C@H]3[C@@H]4CC(N5CCN(CCF)CC5)C[C@@H]43)c(C3CC3)n2)cc1C(F)(F)F (single isomer, unassigned) [Example 153a] = 891
C[C@H]1COCCN1C1C[C@@H]2[C@H](C1)[C@H]2n1cc(-c2cnc(N)c(C(F)(F)F)c2)nc1C1CC1 (single isomer, unassigned) [Example 140b] = 636
Nc1ncc(-c2cn([C@H]3[C@@H]4CN(C5CCOCC5)C[C@@H]43)c(C3CC3)n2)cc1OC(F)F = 1900

(P) CC(C)Cc1nc(-c2cnc(N)c(OC(F)(F)F)c2)cn1[C@H]1[C@@H]2CC(N3CCN(CCF)CC3)C[C@@H]21 (single isomer, unassigned) [Example 159b]
(Q) CC(C)c1nc(-c2cnc(N)c(OC(F)(F)F)c2)cn1[C@H]1C[C@H](N2CCOCC2)C1
### Prompt # argmax over IC50 for candidates P and Q Write the label of whichever entry you select.
### Response P
(P: 1550 nM, Q: 804 nM)

* * *

Biological target: human DLK (Homo sapiens)
Sequence (Q12852 1-859): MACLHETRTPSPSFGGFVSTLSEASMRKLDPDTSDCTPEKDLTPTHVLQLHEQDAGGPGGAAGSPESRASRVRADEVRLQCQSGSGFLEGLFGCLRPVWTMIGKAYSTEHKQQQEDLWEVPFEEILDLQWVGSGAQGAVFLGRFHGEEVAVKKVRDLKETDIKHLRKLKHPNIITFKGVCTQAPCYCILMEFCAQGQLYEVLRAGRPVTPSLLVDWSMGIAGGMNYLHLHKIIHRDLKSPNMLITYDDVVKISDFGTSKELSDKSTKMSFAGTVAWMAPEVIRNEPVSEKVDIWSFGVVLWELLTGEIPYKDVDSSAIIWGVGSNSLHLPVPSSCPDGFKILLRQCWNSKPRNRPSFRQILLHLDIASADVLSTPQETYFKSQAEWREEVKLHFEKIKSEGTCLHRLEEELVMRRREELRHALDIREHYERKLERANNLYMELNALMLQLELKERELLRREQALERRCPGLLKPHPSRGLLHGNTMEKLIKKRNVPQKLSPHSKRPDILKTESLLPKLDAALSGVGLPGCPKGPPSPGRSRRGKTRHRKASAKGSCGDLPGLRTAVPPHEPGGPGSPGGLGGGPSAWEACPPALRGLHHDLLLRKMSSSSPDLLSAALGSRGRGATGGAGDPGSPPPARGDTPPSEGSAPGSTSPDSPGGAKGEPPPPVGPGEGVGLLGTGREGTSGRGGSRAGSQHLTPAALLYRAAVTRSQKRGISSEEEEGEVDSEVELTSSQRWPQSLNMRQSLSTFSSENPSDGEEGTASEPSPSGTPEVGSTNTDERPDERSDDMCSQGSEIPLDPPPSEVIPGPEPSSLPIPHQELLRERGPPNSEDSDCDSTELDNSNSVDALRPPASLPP
Assay: DLK Kd Determinations (KINOMEscan KdELECT, DiscoveRx)
Set-up: full length of human DLK (amino acids 1-859); host or cells: transiently transfected HEK293 cells; unpurified extract
Details: fusion protein of full length human DLK (amino acids 1-859) and NFkB DNA binding domain; qPCR readout; duplicate
pKd: −log10 of the molar value.
readoutType: pKd

The following molecules have reported results that may help.
Nc1ncc(-c2cn([C@H]3[C@@H]4CN(C5CCOCC5)C[C@@H]43)c(C3CC3)n2)cc1OC(F)(F)F = 7.23
Nc1ncc(-c2cn([C@H]3[C@@H]4CN(CC(F)F)C[C@@H]43)c(CC(F)(F)F)n2)cc1C(F)(F)F = 6.92
CC(C)c1nc(-c2cnc(N)c(OC(F)F)c2)cn1[C@H]1[C@@H]2CN(C3CCOCC3)C[C@@H]21 = 6.74
Nc1ncc(-c2cn([C@H]3[C@@H]4CC(N5CCOCC5)C[C@@H]43)c(CC3CC3)n2)cc1C(F)(F)F (single isomer, unassigned) [Example 138a] = 7.64
CC(C)c1nc(-c2cnc(N)c(OC(F)(F)F)c2)cn1[C@H]1[C@@H]2CC(N3CCOC[C@@H]3C)C[C@@H]21 (single isomer, unassigned) [Example 157b] = 7.66

(A) C[C@H]1COCCN1C1C[C@@H]2[C@H](C1)[C@H]2n1cc(-c2cnc(N)c(C(F)(F)F)c2)nc1C1CC1 (single isomer, unassigned) [Example 140b]
(B) Nc1ncc(-c2cn3c(n2)C(C2CC2)N(C2COC2)CC3)cc1C(F)(F)F (stereo not shown)
(C) CC(C)c1nc(-c2cnc(N)c(C(F)(F)F)c2)cn1C1CC2(COC2)C1
(D) CC(=O)N1C[C@@H]2[C@H](C1)[C@H]2n1cc(-c2cnc(N)c(C(F)(F)F)c2)nc1CC1CC1
### Prompt Provide the items ranked by increasing pKd. Labels, requested order.
### Response B, C, D, A
(B: 6.41, C: 6.66, D: 7.18, A: 7.43)

* * *

Biological target: human DLK (Homo sapiens, UniProt Q12852)
Test: DLK Kd Determinations (KINOMEscan KdELECT, DiscoveRx)
Conditions: fusion protein of full length human DLK (amino acids 1-859) and NFkB DNA binding domain; qPCR readout; duplicate
pKd: −log10 of the molar value.
readoutType: pKd

The following molecules have reported results that may help.
CC(C)c1nc(-c2cnc(N)c(C(F)(F)F)c2)cn1C [Example 21] = 6.19
CC(C)Cc1nc(-c2cnc(N)c(C(F)(F)F)c2)cn1[C@H]1[C@@H]2CN(CCF)C[C@@H]21 [Example 126] = 7.47
CC(C)c1nc(-c2cnc(N)c(OC(F)(F)F)c2)cn1[C@H]1[C@@H]2CN(CC(F)(F)F)C[C@@H]21 [Example 110] = 6.55
CC(C)c1nc(-c2cnc(N)c(C(F)(F)F)c2)cn1[C@H]1C[C@H](F)C1 [Example 25] = 6.70
CC(C)(C)Cc1nc(-c2cnc(N)c(C(F)(F)F)c2)cn1[C@H]1[C@@H]2CN(CCF)C[C@@H]21 [Example 85] = 7.22
CC(C)c1nc(-c2cnc(N)c(C(F)(F)F)c2)cn1[C@H]1[C@@H]2CC(N3CCCOCC3)C[C@@H]21 (some centres unmarked) [Example 142] = 8.03

(I) Nc1ncc(-c2cn([C@H]3[C@@H]4CN(C5CCOCC5)C[C@@H]43)c(CC3CC3)n2)cc1OC(F)F [Example 88]
(II) CC(C)Cc1nc(-c2cnc(N)c(C(F)(F)F)c2)cn1[C@H]1[C@@H]2CC(N3CCN(CCF)CC3)C[C@@H]21 (single isomer, unassigned) [Example 160b]
### Prompt # argmax over pKd for candidates I and II Write the label of whichever entry you select.
### Response II
(II: 8.06, I: 7.15)

* * *

Biological target: human DLK (Homo sapiens, UniProt Q12852)
Assay: DLK Kd Determinations (KINOMEscan KdELECT, DiscoveRx)
Details: fusion protein of full length human DLK (amino acids 1-859) and NFkB DNA binding domain; qPCR readout; duplicate
readoutType: Kd (nM)

The following compounds have reported results that may help.
Nc1ncc(-c2cn([C@H]3[C@@H]4CC(N5CCN(CCF)CC5)C[C@@H]43)c(C3CC3)n2)cc1C(F)(F)F (single isomer, unassigned) [Example 153a] = 22
CC(C)c1nc(-c2cnc(N)c(C(F)(F)F)c2)cn1[C@H]1C[C@@H](N2CCCOCC2)C1 = 340
Nc1ncc(-c2cn([C@H]3[C@@H]4CN(C5COC5)C[C@@H]43)c(C3CCCC3)n2)cc1OC(F)(F)F = 140
CC(C)c1nc(-c2cnc(N)c(OC(F)(F)F)c2)cn1[C@H]1[C@@H]2CC(N3CCN(C)CC3)C[C@@H]21 (single isomer, unassigned) [Example 133b] = 21
CC(C)Cc1nc(-c2cnc(N)c(C(F)(F)F)c2)cn1[C@H]1[C@@H]2CC(N3CCN(C)CC3)C[C@@H]21 (single isomer, unassigned) [Example 146b] = 4.5
CC(C)Cc1nc(-c2cnc(N)c(C(F)(F)F)c2)cn1[C@H]1[C@@H]2CC(N3CCN(CCF)CC3)C[C@@H]21 (single isomer, unassigned) [Example 160a] = 13
CC(C)c1nc(-c2cnc(N)c(C(F)(F)F)c2)cn1[C@H]1[C@@H]2CC(N3CCN(CCF)CC3)C[C@@H]21 (single isomer, unassigned) [Example 155b] = 4.5
CC(C)c1nc(-c2cnc(N)c(OC(F)(F)F)c2)cn1[C@H]1[C@@H]2CN(CC(F)F)C[C@@H]21 = 66

(A) CC(C)c1nc(-c2cnc(N)c(C(F)(F)F)c2)cn1[C@H]1[C@@H]2CN(C3CCOCC3)C[C@@H]21
(B) Nc1ncc(-c2cn([C@H]3[C@@H]4CN(C5COC5)C[C@@H]43)c(CC3CC3)n2)cc1C(F)(F)F
(C) CC(C)c1nc(-c2cnc(N)c(OC(F)(F)F)c2)cn1[C@H]1[C@@H]2CC(N3CCN(C)CC3)C[C@@H]21 (single isomer, unassigned) [Example 133a]
(D) Nc1ncc(-c2cn([C@H]3[C@@H]4CN(C5COC5)C[C@@H]43)c(C3CCC3)n2)cc1OC(F)(F)F
### Prompt Sort these compounds on Kd so the largest reading comes first. Labels, requested order.
### Response D, A, B, C
(D: 280 nM, A: 78 nM, B: 46 nM, C: 20 nM)
